experiment: qHTS assay to identify small molecule agonists of the hypoxia (HIF-1) signaling pathway - cell viability counter screen (AID 1224844); conditions: HRE-bla ME-180 viability, CellTiter-Glo luminescence, 17 h; series mostly up to 76.8 µM; further: nearly all actives have a fitted effect of over 50% in size; further: potency means the concentration at half of the fitted maximal effect
Results filed as inconclusive are left out. Active and inactive are the calls of the source. The call rests on the fitted dose curve.
readout name: Potency

# Potency lookup, item CCCCCCCCCCCCCc1ccccc1
inactive

# Potency lookup, item CC1CCCCC1
inactive

# Potency lookup, item Clc1cc(Cl)c(-c2c(Cl)c(Cl)cc(Cl)c2Cl)cc1Cl
inactive

# Potency lookup, item Cc1ccc(-n2[nH]c(C)c(N=Nc3cccc(-c4cccc(C(=O)O)c4)c3O)c2=O)cc1C
6.74 µM (active)

Look at each compound and report its Potency.
1. CCCC(C)CCC(C)=O (centres undefined)
2. CCOB(OCC)OCC

1: inactive; 2: inactive

Look at each compound and report its Potency.
1. O=C1C=CC(=O)N1c1ccccc1
2. O=C(O)CCCCCCC(=O)O
3. Nc1ncnc2c1ncn2[C@@H]1O[C@H](COP(=O)(O)O)[C@@H](O)[C@H]1O
4. COc1ccc2sc(C(=O)Nc3nnn[nH]3)c(OC(C)C)c2c1
5. Clc1ccc(C(c2ccccc2Cl)C(Cl)Cl)cc1 (centres undefined)
6. Cc1cnccn1
7. CCCCCCCC/C=C\CCCCCCCC(=O)NCc1ccc(O)c(OC)c1

["21.9 µM (active)", "inactive", "inactive", "24.5 µM (active)", "54.9 µM (active)", "inactive", "inactive"]

Look at each compound and report its Potency.
1. CC(NCCC(c1ccccc1)c1ccccc1)c1ccccc1 (centres undefined)
2. Cc1ccc(O)cn1
3. CCC(C)C(=O)OC (centres undefined)

inactive
inactive
inactive

Look at each compound and report its Potency.
1. Clc1ccc(C(Cn2ccnc2)OCc2c(Cl)cccc2Cl)c(Cl)c1 (centres undefined)
2. c1ccc(Nc2cccc3ccccc23)cc1
3. S=C(SSSSSSC(=S)N1CCCCC1)N1CCCCC1
4. COC(=O)C1=C(C)NC(C)=C(C(=O)OCCCN2CCC(c3ccccc3)(c3ccccc3)CC2)C1c1cccc([N+](=O)[O-])c1 (centres undefined)

["23.9 µM (active)", "inactive", "3.41 µM (active)", "21.3 µM (active)"]

Look at each compound and report its Potency.
1. O=c1cccc[nH]1
2. CC1(C)COCN1
3. CC(C)CCOCCC(C)C
4. CN1[C@@H]2CC[C@H]1CC(OC(=O)C(CO)c1ccccc1)C2 (some centres undefined)
5. COc1cccc(CCc2ccccc2OCC(CN(C)C)OC(=O)CCC(=O)O)c1 (centres undefined)
6. OCCCCl
7. CCc1cccc(CC)c1NC(=O)C(=O)O

1: inactive; 2: inactive; 3: inactive; 4: inactive; 5: 19 µM (active); 6: inactive; 7: inactive

Look at each compound and report its Potency.
1. CO[Si](CCCNCCNCCN)(OC)OC
2. O=C1NC2CCCCN2C12CCN(CCCN1c3ccccc3CCc3ccc(Cl)cc31)CC2 (centres undefined)
3. CCC(=O)OCCc1ccccc1
4. CC[N+](CC)(CC)Cc1ccccc1
5. CCCC(=O)OCC(COC(=O)CCC)OC(=O)CCC

1. inactive
2. inactive
3. inactive
4. inactive
5. inactive

Look at each compound and report its Potency.
1. O=C(Nc1ccc(Cl)c(Cl)c1)c1cc(Cl)cc(Cl)c1O
2. CN1[C@@H]2CC[C@@H]1CC(OC(=O)C(CO)c1ccccc1)C2 (some centres undefined)
3. C/C=C/c1ccc(OC)c(OC)c1
4. C=CC(=O)OCC(O)COc1ccccc1 (centres undefined)
5. Brc1ccccn1
6. CC(C)=CCCC(C)O (centres undefined)

1. 19.5 µM (active)
2. inactive
3. inactive
4. 38.9 µM (active)
5. inactive
6. inactive

Look at each compound and report its Potency.
1. ClC/C=C\CCl
2. c1ccc(Sc2ccccc2)cc1
3. CS(C)(=O)=O
4. OCCCc1cccnc1

1: inactive; 2: inactive; 3: inactive; 4: inactive
